Test system: THP-1 cells
Test: CCK-8 cell viability of THP-1 cells after 48 h compound treatment in HaCaT/THP-1 co-culture
Type: cell-based, human
Settings: 62.5 μg/mL, 48 h, THP-1, individual replicate values
Label criterion met when Cell viability is strictly below 50%; otherwise label criterion not met.

Illustrative cases are given below, each with its answer.
• N#CCCC(Br)(C#N)CBr (centres unmarked) [bromoml, 1,2-dibromo-2,4-dicyanobutane] = criterion met
• C=CCc1ccc(O)c(OC)c1 [eugenol, Eugenol] = criterion not met
• Sc1nc2ccccc2s1 [2-mercaptobenzothiazole] = criterion not met
• O=CCc1ccccc1 [phenylacetaldehyde, Phenylacetaldehyde] = criterion met
• O=[N+]([O-])c1ccc(Cl)c([N+](=O)[O-])c1 [DNCB, 2,4-dinitrochlorobenzene] = criterion met

IN: Bench note: check whether Oc1cccc(O)c1 [resorcinol, Resorcinol] shows Cell viability below 50%
OUT: criterion not met

IN: Dear colleague, could you confirm whether Cell viability of CC(C)(C)c1cc(O)ccc1O [THBQ, Tert-butylhydroquinone] falls below 50%? Thanks.
OUT: criterion met

IN: For O=c1c(-c2ccccc2)c1-c1ccccc1 [diphenylcyclopropenone, Diphenylcyclopropenone] , is the recorded Cell viability below the cut-off of 50%?
OUT: criterion met

* * *

Test system: THP-1 cells
Test: CCK-8 cell viability of THP-1 cells after 48 h compound treatment in HaCaT/THP-1 co-culture
Assay type: cell-based, human
Details: 15.625 μg/mL, 48 h, THP-1, individual replicate values
Label yes (1) when Cell viability < 70%; otherwise no (0).

Reference set (3 entries):
- O=[N+]([O-])c1ccc(Cl)c([N+](=O)[O-])c1: yes (1)
- CC(C)CCCC(C)CCCC(C)CCCCC(C)CCCC(C)CCCC(C)C (centres unmarked): no (0)
- C=CCc1ccc(O)c(OC)c1: no (0)

IN: Dear reviewer, please state whether "Sc1nc2ccccc2s1" has Cell viability strictly beneath 70%.
OUT: no (0)

IN: Please determine if "O=CCc1ccccc1" is below 70% in terms of Cell viability.
OUT: no (0)

IN: Is the reported Cell viability for CC(C)(C)c1cc(O)ccc1O [THBQ, Tert-butylhydroquinone] strictly below 70%?
OUT: no (0)

IN: Identify whether the compound N#CCCC(Br)(C#N)CBr (centres unmarked) records Cell viability below 70%.
OUT: yes (1)

IN: Strictly below 70%: is that where Cell viability of "Oc1cccc(O)c1" sits?
OUT: no (0)

* * *

Test: CCK-8 cell viability of THP-1 cells after 48 h compound treatment in HaCaT/THP-1 co-culture
Format: cell-based, human
Conditions: human, 250 μg/mL, 48 h, THP-1, individual replicate values
Measured endpoint: viability at 48 h, 250 μg/mL (%)
One number for each entry, in %.

- C=CCc1ccc(O)c(OC)c1: 13.4

Attention now shifts to the item below.
IN: Complete the entry with viability at 48 h, 250 μg/mL for "O=[N+]([O-])c1ccc(Cl)c([N+](=O)[O-])c1"
OUT: 11

* * *

Test system: THP-1 cells
Experiment: CCK-8 cell viability of THP-1 cells after 48 h compound treatment in HaCaT/THP-1 co-culture
Assay type: cell-based, human
Settings: 1.95312 μg/mL, 48 h, THP-1, individual replicate values
Assignment: determine reported Cell viability for the given compounds.
Answers are plain numbers, in %.

Example results:
• O=[N+]([O-])c1ccc(Cl)c([N+](=O)[O-])c1 [DNCB, 2,4-dinitrochlorobenzene] = 97.1973
• Sc1nc2ccccc2s1 [2-mercaptobenzothiazole] = 85.722
• CC(C)CCCC(C)CCCC(C)CCCCC(C)CCCC(C)CCCC(C)C (centres unmarked) [squalane, Squalane] = 117.419
• CC(C)(C)c1cc(O)ccc1O [THBQ, Tert-butylhydroquinone] = 95.9362
• O=CCc1ccccc1 [phenylacetaldehyde, Phenylacetaldehyde] = 84.3308
• O=c1c(-c2ccccc2)c1-c1ccccc1 [diphenylcyclopropenone, Diphenylcyclopropenone] = 135.468

Go through the items and report each one's Cell viability.
1. C=CCc1ccc(O)c(OC)c1 [eugenol, Eugenol]
2. N#CCCC(Br)(C#N)CBr (centres unmarked) [bromoml, 1,2-dibromo-2,4-dicyanobutane]

OUT:
1. 82.8227
2. 103.993
